Source: patent US8242275B2

Study system: E. coli DNA gyrase (Escherichia coli, UniProt P0AES4+P0AES6)
Construct: purchased John Innes Enterprises Ltd. (John Innes Centre, UK)
Run description: DNA gyrase inhibition assay (supercoiling)
Type: biochemical
Condition: E. coli DNA gyrase supercoiling, visual inspection of gels; read-out: DNA Gyrase IC50 (converted)
Experimental endpoint: IC50 (µM)

>>> df
                                    compound  display_unit  rel  measurement
 0  COc1ccc2nccc(-n3cc4c(n3)CCC(NC(=O)/C=C/c3cccc([N+](=O)[O-])c3)C4)c2n1 (stereo not shown)            µM    =         2.13
 1  COc1ccc2nccc(-n3cc4c(n3)CCC(NC(=O)/C=C/c3ccc(F)cc3)C4)c2n1 (stereo not shown)            µM    >         36.1
 2  COc1ccc2nccc(-n3cc4c(n3)CCC(NCc3cc5c(cc3Cl)OCO5)C4)c2n1 (stereo not shown)            µM    =         4.31
 3  COc1ccc2nccc(-n3cc4c(n3)CCC(NCc3cc5c(cc3F)OCCO5)C4)c2n1 (stereo not shown)            µM    =         1.08
 4  COc1ccc2nccc(-n3cc4c(n3)CCC(NC(=O)c3c(F)cc5c(c3F)NC(=O)CS5)C4)c2c1 (stereo not shown)            µM    =         1.92
 5  COc1ccc2nccc(-n3cc4c(n3)CCC(NC/C=C/c3cccnc3)C4)c2n1 (stereo not shown)            µM    =         4.85
 6  COc1ccc2nccc(-n3cc4c(n3)CCC(NC(=O)c3ccc5c(c3)OCCO5)C4)c2n1 (stereo not shown)            µM    >         69.9
 7  O=C1CSc2ccc(CNC3CCc4c(cnn4-c4cc(C(F)(F)F)nc5ccccc45)C3)cc2N1 (stereo not shown)            µM    >         31.4
 8  COc1ccc2nccc(-n3cc4c(n3)CCC(NC(=O)/C=C/c3ccc(F)c(F)c3)C4)c2n1 (stereo not shown)            µM    >         34.7
 9  COc1ccc2nccc(-n3cc4c(n3)CCC(NC(=O)C3(c5ccc(Cl)cc5)CCCC3)C4)c2c1 (stereo not shown)            µM    >         31.9
10  COc1ccc2nccc(-n3cc4c(n3)CCC(NC(=O)C(=O)c3cc5ccccc5[nH]3)C4)c2n1 (stereo not shown)            µM    >         34.3
11  COc1ccc2nccc(-n3cc4c(n3)CCN(C(=O)c3ccc5c(c3)NC(=O)CS5)CC4)c2n1            µM    >         65.8
12  COc1ccc2nccc(-n3cc4c(n3)CCC(NC(=O)c3cc5c(cc3Br)SCC(=O)N5)C4)c2c1 (stereo not shown)            µM    =        0.886
13  COc1ccc2nccc(-n3cc4c(n3)CCC(NC(=O)c3cnc5ccccc5n3)C4)c2n1 (stereo not shown)            µM    >         70.9
14  COc1ccc2nccc(-n3cc4c(n3)CC(NC(=O)c3cc5c(cc3F)SCC(=O)N5)CC4)c2c1 (stereo not shown)            µM    =         3.97
15  COc1ccc2nccc(-n3cc4c(n3)CCC(NCc3ccc5c(c3)NCCS5)C4)c2c1 (stereo not shown)            µM    =         1.09

###

Test system: MSSA ATCC13709 (Smith)
Run description: Resistant strains assay (broth microdilution MIC)
Assay type: cell-based
Condition: Staphylococcus aureus
Experimental endpoint: MIC (µg/mL)

>>> df
                                   compound  display_unit  measurement
0  CCn1cc(C(=O)O)c(=O)c2cc(F)c(N3CCNCC3)cc21 [Norfloxacin, reference compound]         µg/mL            1
1  COc1ccc2nccc(-n3cc4c(n3)CCC(NCc3ccc5c(c3)NC(=O)CS5)C4)c2n1 (centres unmarked) [Example 41]         µg/mL         0.25
2  COc1ccc2nccc(-n3cc4c(n3)CCC(NC(=O)c3ccc5c(c3)NC(=O)CS5)C4)c2c1 (centres unmarked) [Example 17]         µg/mL         0.25
3  COc1ccc2nccc(-n3cc4c(n3)CCC(NCc3ccc5c(c3)OCCO5)C4)c2c1 (centres unmarked) [Example 50]         µg/mL          0.5
4  COc1ccc2nccc(-n3cc4c(n3)CCC(NCc3ccc5c(c3)NC(=O)CS5)C4)c2c1 (centres unmarked) [Example 52]         µg/mL         0.25

###

System: CipR MRSA OC5273
Run description: Resistant strains assay (broth microdilution MIC)
Assay type: cell-based
Condition: Staphylococcus aureus, read-out: MIC, Column H
Experimental endpoint: MIC

>>> print(df.to_string())
                                   compound  experimental_endpoint  measurement
0  COc1ccc2nccc(-n3cc4c(n3)CCC(NC(=O)c3ccc5c(c3)NC(=O)CS5)C4)c2n1 (stereo not shown) [Example 4]                    MIC  0.062 µg/mL
1  COc1ccc2nccc(-n3cc4c(n3)CCC(NCc3ccc5c(c3)NC(=O)CS5)C4)c2n1 (stereo not shown) [Example 41]                    MIC    0.5 µg/mL
2  COc1ccc2nccc(-n3cc4c(n3)CCC(NC(=O)c3cc5c(cc3F)SCC(=O)N5)C4)c2c1 (stereo not shown) [Example 18]                    MIC  0.062 µg/mL
3  COc1ccc2nccc(-n3cc4c(n3)CCC(NCc3ccc5c(c3)NC(=O)CS5)C4)c2c1 (stereo not shown) [Example 52]                    MIC    0.5 µg/mL

###

System: S. aureus ATCC13709
Run description: In vitro antibacterial activity (MIC assay), broth microdilution
Assay type: cell-based
Condition: Staphylococcus aureus, ATCC13709; read-out: S. aureus ATCC13709 MIC
Experimental endpoint: log10(MIC) (log10 of the value in µg/mL)

>>> df
                                    compound         study_system  experimental_endpoint  measurement
 0  COc1ccc2nccc(-n3cc4c(n3)CCC(NCc3ccc5c(c3)OC(F)(F)O5)C4)c2n1 (stereo not shown) [Example 38]  S. aureus ATCC13709             log10(MIC)        -0.60
 1  COc1ccc2nccc(-n3cc4c(n3)CCC(NCC(=O)Nc3ccc(Cl)c(Cl)c3)C4)c2c1 (stereo not shown) [Example 62]  S. aureus ATCC13709             log10(MIC)         0.00
 2  COc1ccc2nccc(-n3cc4c(n3)CCC(NCC(=O)Nc3cccc(C(F)(F)F)c3)C4)c2n1 (stereo not shown) [Example 122]  S. aureus ATCC13709             log10(MIC)         0.30
 3  O=C1CSc2ccc(C(=O)NC3CCc4nn(-c5ccnc6cc(Cl)ccc56)cc4C3)cc2N1 (stereo not shown) [Example 81]  S. aureus ATCC13709             log10(MIC)         0.30
 4  COc1ccc2nccc(-n3cc4c(n3)CCC(NC(=O)c3ccc5c(c3)NC(=O)CS5)C4)c2n1 (stereo not shown) [Example 4]  S. aureus ATCC13709             log10(MIC)        -1.22
 5  COc1ccc2nccc(-n3cc4c(n3)CCC(NC(=O)/C=C/c3ccccc3)C4)c2c1 (stereo not shown) [Example 29]  S. aureus ATCC13709             log10(MIC)         0.00
 6  COc1ccc2nccc(-n3cc4c(n3)CCC(NC(=O)/C=C/c3cccs3)C4)c2c1 (stereo not shown) [Example 30]  S. aureus ATCC13709             log10(MIC)         0.00
 7  COc1ccc2nccc(-n3cc4c(n3)CCC(NC(=O)c3ccc5c(c3)OCCO5)C4)c2n1 (stereo not shown) [Example 1]  S. aureus ATCC13709             log10(MIC)        -0.30
 8  CCOC(=O)c1cc2c(cc1C(=O)NC1CCc3nn(-c4ccnc5ccc(OC)cc45)cc3C1)NC(=O)CS2 (stereo not shown) [Example 135]  S. aureus ATCC13709             log10(MIC)         0.30
 9  COc1ccc2nccc(-n3cc4c(n3)CCC(NCc3cc5c(cc3Cl)OCO5)C4)c2n1 (stereo not shown) [Example 105]  S. aureus ATCC13709             log10(MIC)        -0.30
10  COc1ccc2nccc(-n3cc4c(n3)CCC(NC(=O)c3cc(F)c(Cl)cc3Cl)C4)c2n1 (stereo not shown) [Example 125]  S. aureus ATCC13709             log10(MIC)        -0.60
11  COc1ccc2nccc(-n3cc4c(n3)CCC(NC(=O)/C=C/c3cccc([N+](=O)[O-])c3)C4)c2n1 (stereo not shown) [Example 14]  S. aureus ATCC13709             log10(MIC)         0.00
12  COc1ccc2nccc(-n3cc4c(n3)CCC(NC(=O)c3ccc(C)c([N+](=O)[O-])c3)C4)c2c1 (stereo not shown) [Example 111]  S. aureus ATCC13709             log10(MIC)        -0.60
13  O=C1CSc2ccc(CNC3CCc4c(cnn4-c4cc(C(F)(F)F)nc5ccccc45)C3)cc2N1 (stereo not shown) [Example 139]  S. aureus ATCC13709             log10(MIC)         0.90
14  COc1ccc2nccc(-n3cc4c(n3)CCC(NCc3cc5c(cc3F)SCC(=O)N5)C4)c2c1 (stereo not shown) [Example 53]  S. aureus ATCC13709             log10(MIC)        -0.60
15  COc1ccc2nccc(-n3cc4c(n3)CCC(NCc3ccc5c(c3)OCCO5)C4)c2n1 (stereo not shown) [Example 42]  S. aureus ATCC13709             log10(MIC)        -1.52
16  COc1ccc2nccc(-n3cc4c(n3)CCC(NC(=O)C(=O)c3cc5ccccc5[nH]3)C4)c2c1 (stereo not shown) [Example 26]  S. aureus ATCC13709             log10(MIC)        -0.60
17  COc1ccc2nccc(-n3cc4c(n3)CCC(NC(=O)c3ccc5c(c3)NC(=O)C(C)(C)S5)C4)c2c1 (stereo not shown) [Example 129]  S. aureus ATCC13709             log10(MIC)         0.00
18  COc1ccc2nccc(-n3ncc4c3CCC(NC(=O)c3cc5c(cc3C(F)(F)F)SCC(=O)N5)C4)c2c1 (stereo not shown) [Example 99]  S. aureus ATCC13709             log10(MIC)         0.30
19  COc1ccc2nccc(-n3cc4c(n3)CCC(NCCOc3cc(F)cc(F)c3)C4)c2n1 (stereo not shown) [Example 134]  S. aureus ATCC13709             log10(MIC)         0.00
20  COc1ccc2nccc(-n3cc4c(n3)CCC(NC(=O)c3cnc5ccccc5n3)C4)c2n1 (stereo not shown) [Example 70]  S. aureus ATCC13709             log10(MIC)         0.30
21  COc1ccc2nccc(-n3cc4c(n3)CCC(NCc3cc5c(cc3Cl)OCCO5)C4)c2n1 (stereo not shown) [Example 104]  S. aureus ATCC13709             log10(MIC)        -0.90
22  COc1ccc2nccc(-n3cc4c(n3)CCC(NCC(=O)Nc3ccc5c(c3)NC(=O)CS5)C4)c2n1 (stereo not shown) [Example 83]  S. aureus ATCC13709             log10(MIC)         0.30
23  COc1ccc2nccc(-n3cc4c(n3)CCC(NC(=O)/C=C/c3cccc(Cl)c3)C4)c2n1 (stereo not shown) [Example 12]  S. aureus ATCC13709             log10(MIC)        -0.60
24  COc1ccc2nccc(-n3cc4c(n3)CCC(NC/C=C/c3ccccc3[N+](=O)[O-])C4)c2n1 (stereo not shown) [Example 89]  S. aureus ATCC13709             log10(MIC)         0.30
25  COc1ccc2nccc(-n3cc4c(n3)CCC(NC(=O)c3cc5cc(C)ccc5[nH]3)C4)c2c1 (stereo not shown) [Example 75]  S. aureus ATCC13709             log10(MIC)         0.60
26  Cc1cc(-n2cc3c(n2)CCC(NC(=O)c2ccc4c(c2)NC(=O)CS4)C3)c2cc(F)ccc2n1 (stereo not shown) [Example 82]  S. aureus ATCC13709             log10(MIC)         0.90
27  COc1ccc2nccc(-n3cc4c(n3)CCC(NC(=O)c3ccc5c(c3)NC(=O)CS5)C4)c2c1 (stereo not shown) [Example 17]  S. aureus ATCC13709             log10(MIC)        -0.60
28  COc1ccc2nccc(-n3cc4c(n3)CCC(NC/C=C/c3cccnc3)C4)c2n1 (stereo not shown) [Example 47]  S. aureus ATCC13709             log10(MIC)         0.00
